targetUnderTest: Calcium/calmodulin-dependent protein kinase type 1 (Homo sapiens)
experimentSummary: Enzymatic radiometric [Km ATP] KinaseProfiler LeadHunter assay, kinase: CaMKI, catalogue number: 14-663KP The assay has been performed by Eurofins Discovery.
testParameters: ATP concentration 200.0 uM, Test compound concentration 10.0 uM

smilesInput	Activity / %
CC(C)[C@@H](Nc1ncnc2[nH]ccc12)c1ccc2c(c1)S(=O)(=O)CCC2	94
CC(C)[C@H](Nc1ncnc2[nH]ccc12)c1ccc2c(c1)S(=O)(=O)CCC2	92
CC(C)[C@@H](Nc1ncnc2[nH]c(C(=O)N[C@@H]3CCN(C)C3)cc12)c1ccc2c(c1)S(=O)(=O)CCC2	100
COc1ccc([C@@H](Cc2nnn[nH]2)NC(=O)c2ncnc3[nH]ccc23)cc1	100
CC(C)[C@H](Nc1ncnc2[nH]c(-c3cnn(C)c3C#N)cc12)c1ccc2c(n1)OCCO2	104
C[C@H](C(=O)O)[C@@H](NC(=O)c1ncnc2[nH]ccc12)c1ccc(Br)cc1	101
CNC(=O)Cn1cc(-c2cc3c(N[C@@H](c4ccc5c(c4)S(=O)(=O)CCC5)C(C)C)ncnc3[nH]2)cn1	101
Cn1ncc(-c2cc3c(N[C@@H](c4ccc5c(n4)OCCO5)C(C)(C)C)ncnc3[nH]2)c1C#N	87
CNCc1cc(-c2cc3c(N[C@@H](c4ccc5c(c4)S(=O)(=O)CCC5)C(C)C)ncnc3[nH]2)co1	87
Cc1nn(C)cc1-c1cc2c(N[C@H](c3ccc4c(c3)S(=O)(=O)CCC4)C(C)C)ncnc2[nH]1	101
